Target: T1, human transferrin receptor (hTfR) (human, UniProt P02786 89-760)
T1 construct: used as 0.5 uM hTfR dimer solution, immobilised on an NTA sensor chip (Ni capture plus EDC/NHS coupling); also called human TfR; TfR1
T1 sequence (P02786 89-760 limits assumed): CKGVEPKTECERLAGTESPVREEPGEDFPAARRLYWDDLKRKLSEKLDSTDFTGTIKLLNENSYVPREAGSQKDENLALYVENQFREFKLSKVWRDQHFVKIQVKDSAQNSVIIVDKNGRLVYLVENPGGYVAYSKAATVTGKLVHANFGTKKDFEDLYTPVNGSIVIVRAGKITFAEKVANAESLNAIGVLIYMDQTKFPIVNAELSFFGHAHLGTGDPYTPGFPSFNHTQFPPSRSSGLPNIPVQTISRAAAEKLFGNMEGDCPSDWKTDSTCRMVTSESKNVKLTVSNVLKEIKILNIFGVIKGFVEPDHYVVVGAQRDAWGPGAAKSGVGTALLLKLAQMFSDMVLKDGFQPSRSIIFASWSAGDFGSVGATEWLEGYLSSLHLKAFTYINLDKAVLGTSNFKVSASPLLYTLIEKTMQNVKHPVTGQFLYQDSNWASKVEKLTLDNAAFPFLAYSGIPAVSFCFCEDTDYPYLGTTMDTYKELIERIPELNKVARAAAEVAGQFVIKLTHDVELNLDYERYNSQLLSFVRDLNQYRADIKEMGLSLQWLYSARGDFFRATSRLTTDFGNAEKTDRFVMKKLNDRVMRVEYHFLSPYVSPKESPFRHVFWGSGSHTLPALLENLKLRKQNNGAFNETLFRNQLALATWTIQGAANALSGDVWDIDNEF
Assay: SPR; B = KD 1-100 nM
Procedure: NTA sensor chip (Global Life Sciences Technologies Japan K.K.) was inserted into BiacoreT200 (Global Life Sciences Technologies Japan K.K.), then the priming operation was performed three times by using running buffer containing: 10 mM HEPES pH 8.0 (Nacalai Tesque, Inc.), 150 mM NaCl (Nacalai Tesque, Inc.), 0.05% Tween 20 (Nacalai Tesque, Inc.), 0.1% BSA (SIGMA-ALDRICH) and 1.0% DMSO (FUJIFILM Wako Pure Chemical Corporation), and equilibrated at a flow rate of 30 μL/min. […]
Starred links: 1 amine or outer side, 2 acyl side, 3 side chain; linkers in the order of their positions; H or OH if unused. Positions of bridges follow the written chain, without caps; N, C: chain ends. Non-standard residues stand in square brackets, D forms with d. *: point of attachment. Trp(1-CH2CO) = O=C([C@H](Cc1cn(CC(=O)[*:3])c2ccccc12)N[*:1])[*:2]; NH(CH2CH2O)8Me = COCCOCCOCCOCCOCCOCCOCCOCCN*; NMePhe(3-Cl) = CN[C@@H](Cc1cccc(Cl)c1)C(=O)O; NMePhe(4-F) = CN[C@@H](Cc1ccc(F)cc1)C(=O)O; NMeW = CN[C@@H](Cc1c[nH]c2ccccc12)C(=O)O; NMeY = CN[C@@H](Cc1ccc(O)cc1)C(=O)O; 3Pal = N[C@@H](Cc1cccnc1)C(=O)O; 4Pal = N[C@@H](Cc1ccncc1)C(=O)O
# KD values compiled below

{"BINDER": "{CH2CO}-AV[NMePhe(4-F)]V[NMeW]NYYIIR[dR]FYC-NH2 (thioether N-15; not fully specified (residue 14); also: linker PEG4c, place not given here) [894_0260]", "KD": "1 to 100 nM"}
{"BINDER": "{CH2CO}-AV[NMePhe(3-Cl)]V[Trp(1-CH2CO)]NY[3Pal]IIRE(NH(CH2CH2O)8Me)[4Pal][NMeY]C-NH2 (thioether N-15; also: linker PEG4c) [894_0351]", "KD": "1 to 100 nM"}
